- targetSystem: activated ERK2 (Homo sapiens (Human), UniProt P28482)
- Sequence (P28482 whole entry): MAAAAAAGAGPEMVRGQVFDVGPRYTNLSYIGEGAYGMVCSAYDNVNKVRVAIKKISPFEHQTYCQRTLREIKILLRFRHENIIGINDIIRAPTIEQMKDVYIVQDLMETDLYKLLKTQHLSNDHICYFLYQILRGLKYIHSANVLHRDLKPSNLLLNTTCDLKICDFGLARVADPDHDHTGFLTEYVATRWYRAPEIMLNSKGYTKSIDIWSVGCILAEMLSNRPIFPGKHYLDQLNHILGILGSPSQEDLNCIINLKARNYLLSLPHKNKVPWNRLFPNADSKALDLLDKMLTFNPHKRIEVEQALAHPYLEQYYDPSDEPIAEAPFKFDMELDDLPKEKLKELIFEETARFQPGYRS
- experimentalDetails: Activated ERK2 kinase assay (AlphaScreen, ERKtide peptide phosphorylation)
- Format: biochemical
- experimentalConditions: […] ERK2, 200 nM ERKtide peptide, 35 μM ATP, 30 min preincubation; read-out: ERK2 IC50
assayReadout: IC50 (nM)

// worked examples, IC50 included
input: Return reported IC50; argument: C[C@@H](NC(=O)N1Cc2nc(NC3CCOCC3)ncc2C1(C)CO)c1ccccc1 (some centres unmarked) [compound 91]
output: 657

input: Return reported IC50; argument: CC1(C)c2cnc(NC3CCOCC3)nc2CN1C(=O)NCc1cccc(C(N)=O)c1
output: 11

input: Return reported IC50; argument: COC(=O)N1CC[C@@H](Nc2ncc3c(n2)CN(C(=O)N[C@H](CO)c2ccccc2)C3(C)C)C1
output: 30

1: CC1(C)c2cnc(NC3CCOC3)nc2CN1C(=O)N[C@H](CO)c1ccccc1 (some centres unmarked)
2: CC1(C)c2cnc(NC3CCOCC3)nc2CN1C(=O)N[C@H](CCO)c1ccccc1
3: Cc1cccc([C@@H](CO)NC(=O)N2Cc3nc(NC4CCOCC4)ncc3C2(C)C)c1
input: Put the items in sequence by IC50, from largest down. Put the labels in the requested order and write them down.
output: 1, 2, 3
(1: 375 nM, 2: 73 nM, 3: 16 nM)

a: CC(=O)N1CC[C@@H](Nc2ncc3c(n2)CN(C(=O)N[C@H](CO)c2ccccc2)C3(C)C)C1
b: CC1(C)c2cnc(NC3CCOCC3)nc2CN1C(=O)NCc1ccc(SC(F)(F)F)cc1
input: Select the item whose IC50 value is smaller, choosing between a and b . Write the label of whichever entry you select.
output: b
(b: 11 nM, a: 740 nM)
